# Tested on: ICR mice
# Assay overview: Acute toxicity test
# Assay type: in vivo
# Conditions used: female, 55.0 mg/kg i.p.
Record form. Attribute: Number of dead mice, 4th day. Fill in for each entry.

Query NC[C@H]1OC2(CCCC2)O[C@@H]1CN.O=C1C[O][Pt][O]1 [Example 3] on ICR mice; Number of dead mice, 4th day returned: 1/2

Query CC(C)C1O[C@H](CN)[C@@H](CN)O1.O=C1C[O][Pt][O]1 [Example 7] on ICR mice; Number of dead mice, 4th day returned: 1/5

Query NC[C@H]1OC2(CCCCC2)O[C@@H]1CN.O=C1C[O][Pt][O]1 [Example 4] on ICR mice; Number of dead mice, 4th day returned: 1/5

Query CCC1O[C@H](CN)[C@@H](CN)O1.O=C1C[O][Pt][O]1 [Example 6] on ICR mice; Number of dead mice, 4th day returned: 1/2

Query CC1(C)O[C@H](CN)[C@@H](CN)O1.O=C1C[O][Pt][O]1 [Example 2] on ICR mice; Number of dead mice, 4th day returned: 1/2
